- System: TNF-α
- Experimental protocol: Inhibition of TNF-α production by stimulated human peripheral blood leukocytes in vitro
- Assay type: cell-based
- Experimental parameters: PBL, LPS stimulated, compound 10 μM
Param threshold (30%) applies to Percentage of inhibition of TNF-α production; output t when value >= threshold, f when value < threshold.

Worked set:
Given the entry CC[C@H]1OC(=O)[C@H](C)C2O[C@@](C)(C[C@@H](C)CN(C(=O)NCc3ccccc3)[C@H](C)[C@@H](O)[C@]1(C)O)[C@H](O[C@@H]1O[C@H](C)C[C@H](N(C)C)[C@H]1O)[C@H]2C , answer whether its Percentage of inhibition of TNF-α production meets or surpasses 30%.
f

Next compound up: CCC1OC(=O)C(C)C(OC2CC(C)(OC)C(O)C(C)O2)C(C)C(OC2OC(C)CC(N(C)C)C2O)C(C)(O)CC(C)CN(C(=S)Nc2ccc(Cl)cc2)C(C)C(O)C1(C)O (stereo not shown)
t

CCC1OC(=O)C(C)C(OC2CC(C)(OC)C(O)C(C)O2)C(C)C(OC2OC(C)CC(N(C)C)C2O)C(C)(O)CC(C)CN(C(=S)Nc2cccc(F)c2)C(C)C(O)C1(C)O (stereo not shown) ?
t

Now consider CC[C@H]1OC(=O)[C@H](C)[C@@H](O)[C@H](C)[C@@H](O[C@@H]2O[C@H](C)C[C@H](N(C)C)[C@H]2O)[C@](C)(O)C[C@@H](C)CN(C(=O)NCc2ccccc2)[C@H](C)[C@@H](O)[C@]1(C)O and answer again.
t

Request: CC[C@H]1OC(=O)[C@H](C)[C@@H](O[C@H]2C[C@@](C)(OC)[C@@H](O)[C@H](C)O2)[C@H](C)[C@@H](O[C@@H]2O[C@H](C)C[C@H](N(C)C)[C@H]2O)[C@](C)(O)C[C@@H](C)CN(C(=S)Nc2ccc(Br)cc2)[C@H](C)[C@@H](O)[C@]1(C)O
f

Ok, now CCC1OC(=O)C(C)C(O)C(C)C(OC2OC(C)CC(N(C)C)C2O)C(C)(O)CC(C)CN(C(=S)NCc2ccccc2)C(C)C(O)C1(C)O (stereo not shown)
f

Here's the next entry for you.
Identify whether the reported Percentage of inhibition of TNF-α production of the following compound is 30% or greater: CC[C@H]1OC(=O)[C@H](C)[C@@H](O[C@H]2C[C@@](C)(OC)[C@@H](O)[C@H](C)O2)[C@H](C)[C@@H](O[C@@H]2O[C@H](C)C[C@H](N(C)C)[C@H]2O)[C@](C)(O)C[C@@H](C)CN(C(=O)Nc2ccc(Cl)c(C(F)(F)F)c2)[C@H](C)[C@@H](O)[C@]1(C)O
t

----------
- Tested on: A549
- Experimental protocol: MTT cytotoxicity assay on A549 cell line
- Assay type: cell-based
- Experimental parameters: human, 24 h, 12.5 μM
Measure: Percentage of viable cells after treatment (%)
Your answer should be a plain number; it is taken to be in %.

Solved cases below.
Find the recorded Percentage of viable cells after treatment belonging to CC[C@H]1OC(=O)[C@H](C)[C@@H](O[C@H]2C[C@@](C)(OC)[C@@H](O)[C@H](C)O2)[C@H](C)[C@@H](O[C@@H]2O[C@H](C)C[C@H](N(C)C)[C@H]2O)[C@](C)(O)C[C@@H](C)CN(C(=S)Nc2ccccc2F)[C@H](C)[C@@H](O)[C@]1(C)O and report it.
100

Field entry: CC[C@H]1OC(=O)[C@H](C)[C@@H](O[C@H]2C[C@@](C)(OC)[C@@H](O)[C@H](C)O2)[C@H](C)[C@@H](O[C@@H]2O[C@H](C)C[C@H](N(C)C)[C@H]2O)[C@](C)(OC)C[C@@H](C)C(=O)[C@H](C)[C@@H](O)[C@]1(C)O [Clarithromycin, clarithromycin, reference compound]
100

Can you check CC[C@H]1OC(=O)[C@H](C)[C@@H](O[C@H]2C[C@@](C)(OC)[C@@H](O)[C@H](C)O2)[C@H](C)[C@@H](O[C@@H]2O[C@H](C)C[C@H](N(C)C)[C@H]2O)[C@](C)(O)C[C@@H](C)CN(C(=O)Nc2ccc(C(F)(F)F)cc2)[C@H](C)[C@@H](O)[C@]1(C)O next?
100

More entries:
Which value of Percentage of viable cells after treatment has been reported for CC[C@H]1OC(=O)[C@H](C)[C@@H](O[C@H]2C[C@@](C)(OC)[C@@H](O)[C@H](C)O2)[C@H](C)[C@@H](O[C@@H]2O[C@H](C)C[C@H](N(C)C)[C@H]2O)[C@](C)(O)C[C@@H](C)CN(C)[C@H](C)[C@@H](O)[C@]1(C)O [Azithromycin, azithromycin, reference compound] in the records?
100

Another compound to look at: CC[C@H]1OC(=O)[C@H](C)[C@@H](O[C@H]2C[C@@](C)(OC)[C@@H](O)[C@H](C)O2)[C@H](C)[C@@H](O[C@@H]2O[C@H](C)C[C@H](N(C)C)[C@H]2O)[C@](C)(O)C[C@@H](C)CN(C(=O)NC(C)c2cccc3ccccc23)[C@H](C)[C@@H](O)[C@]1(C)O (some centres unmarked)
94

----------
- System: human peripheral blood mononuclear cells (PBMC)
- Experimental protocol: Human T-cell proliferation in vitro (3H-thymidine incorporation)
- Assay type: cell-based
- Experimental parameters: PHA stimulated, compound 10 μM
Measure: Percentage of inhibition of proliferation of stimulated PBMC (%)
A number alone suffices; assume %.

Below are worked cases with known answers.
Which Percentage of inhibition of proliferation of stimulated PBMC is reported for this compound? CC[C@H]1OC(=O)[C@H](C)[C@@H](O)[C@H](C)[C@@H](O[C@@H]2O[C@H](C)C[C@H](N(C)C)[C@H]2O)[C@](C)(O)C[C@@H](C)CN(C(=O)NCc2ccccc2)[C@H](C)[C@@H](O)[C@]1(C)O
0

Please answer likewise for CCC1OC(=O)C(C)C(OC2CC(C)(OC)C(O)C(C)O2)C(C)C(OC2OC(C)CC(N(C)C)C2O)C(C)(O)CC(C)CN(C(=S)Nc2ccc(Cl)cc2)C(C)C(O)C1(C)O (stereo not shown)
6

Next entry: CCC1OC(=O)C(C)C(OC2CC(C)(OC)C(O)C(C)O2)C(C)C(OC2OC(C)CC(N(C)C)C2O)C(C)(O)CC(C)CN(C(=S)Nc2cccc(F)c2)C(C)C(O)C1(C)O (stereo not shown)
26

Next:
Fill blank: measured Percentage of inhibition of proliferation of stimulated PBMC of the compound CCC1OC(=O)C(C)C(O)C(C)C(OC2OC(C)CC(N(C)C)C2O)C(C)(O)CC(C)CN(C(=S)NCc2ccccc2)C(C)C(O)C1(C)O (stereo not shown) is ____.
21

----------
- Tested on: human peripheral blood mononuclear cells (PBMC)
- Experimental protocol: Human T-cell proliferation in vitro (3H-thymidine incorporation)
- Format: cell-based
- Experimental parameters: PHA stimulated, compound 50 μM
- Experimental: Influence of substances at two different concentrations (50 μM and 10 μM) on cell proliferation of human peripheral blood mononuclear cells (PBMC) was assessed. Heparinized peripheral blood was obtained from healthy donors, and PBMC were isolated by Histopaque 1077 (Sigma, USA) density centrifugation at 400×g for 30 minutes. […] The incorporation of ^3H-thymidine in activated cells were measured using TopCount NXT (Packard, USA). […]
Recorded Percentage of inhibition of proliferation of stimulated PBMC, one value per entry.
Record the value in %, omitting the unit from your answer.

Sample records with Percentage of inhibition of proliferation of stimulated PBMC:
Entry CCC1OC(=O)C(C)C(OC2CC(C)(OC)C(O)C(C)O2)C(C)C(OC2OC(C)CC(N(C)C)C2O)C(C)(O)CC(C)CN(C(=S)Nc2ccc(Cl)cc2)C(C)C(O)C1(C)O (stereo not shown) has what Percentage of inhibition of proliferation of stimulated PBMC?
97

Another: CCC1OC(=O)C(C)C(O)C(C)C(OC2OC(C)CC(N(C)C)C2O)C(C)(O)CC(C)CN(C(=S)NCc2ccccc2)C(C)C(O)C1(C)O (stereo not shown)
95

One more molecule: CCC1OC(=O)C(C)C(OC2CC(C)(OC)C(O)C(C)O2)C(C)C(OC2OC(C)CC(N(C)C)C2O)C(C)(O)CC(C)CN(C(=S)Nc2cccc(F)c2)C(C)C(O)C1(C)O (stereo not shown)
100

Next, consider the following molecule.
# query: Percentage of inhibition of proliferation of stimulated PBMC of entry CC[C@H]1OC(=O)[C@H](C)[C@@H](O)[C@H](C)[C@@H](O[C@@H]2O[C@H](C)C[C@H](N(C)C)[C@H]2O)[C@](C)(O)C[C@@H](C)CN(C(=O)NCc2ccccc2)[C@H](C)[C@@H](O)[C@]1(C)O
0

----------
- Tested on: IL-6
- Experimental protocol: Inhibition of IL-6 production by stimulated human peripheral blood leukocytes in vitro
- Type: cell-based
- Experimental parameters: PBL, zymosan stimulated, compound 10 μM
# Lookup of reported Percentage of inhibition of IL-6 production keyed by entry

# count of solved cases: 3
Look at this compound and give its reported Percentage of inhibition of IL-6 production. CC[C@H]1OC(=O)[C@H](C)[C@@H](O)[C@H](C)[C@@H](O[C@@H]2O[C@H](C)C[C@H](N(C)C)[C@H]2O)[C@](C)(O)C[C@@H](C)CN(C(=O)NCc2ccccc2)[C@H](C)[C@@H](O)[C@]1(C)O
20%

Now this one: CCC1OC(=O)C(C)C(OC2CC(C)(OC)C(O)C(C)O2)C(C)C(OC2OC(C)CC(N(C)C)C2O)C(C)(O)CC(C)CN(C(=S)Nc2ccc(Cl)cc2)C(C)C(O)C1(C)O (stereo not shown)
90%

# repeat for CC[C@H]1OC(=O)[C@H](C)[C@@H](O[C@H]2C[C@@](C)(OC)[C@@H](O)[C@H](C)O2)[C@H](C)[C@@H](O[C@@H]2O[C@H](C)C[C@H](N(C)C)[C@H]2O)[C@](C)(O)C[C@@H](C)CN(C(=O)Nc2ccc(Cl)c(C(F)(F)F)c2)[C@H](C)[C@@H](O)[C@]1(C)O
76%

# context switch: different compound, same Percentage of inhibition of IL-6 production
Reported Percentage of inhibition of IL-6 production, compound CCC1OC(=O)C(C)C(O)C(C)C(OC2OC(C)CC(N(C)C)C2O)C(C)(O)CC(C)CN(C(=S)NCc2ccccc2)C(C)C(O)C1(C)O (stereo not shown) : ____
23%
